- assayText: in vitro
- statedConditions: human, Caco-2, Caco-2 (cm/sec)
Where a SMILES comes first, the peptide text is derived from it. Bridges are numbered along the chain shown (N, C = ends). [ ]: non-standard residue; d: D form. The star is where a group is joined. NMePhe(3-Cl) = CN[C@@H](Cc1cccc(Cl)c1)C(=O)O; NMeF = CN[C@@H](Cc1ccccc1)C(=O)O; NMeI = CC[C@H](C)[C@H](NC)C(=O)O; NMeL = CN[C@@H](CC(C)C)C(=O)O; NMeV = CN[C@H](C(=O)O)C(C)C; Piperidide = C1CCN(*)CC1; NPrGly = CCCNCC(=O)O; X2 = Fc1cncc(C*)c1; X3 = C[C@H](O)C*; Sar = CNCC(=O)O
# Papp per record follows
metricName: Papp (×10⁻⁶ cm/s)

compound	endpointResult
CCCN1CC(=O)N(C)[C@@H](CC(C)C)C(=O)N[C@@H](COC[C@H](C)O)C(=O)N(C)[C@@H](Cc2cccc(Cl)c2)C(=O)N(C)[C@@H](C(C)C)C(=O)N[C@H](C(=O)N2CCCCC2)CC(=O)N[C@H](C(C)C)C(=O)N(C)[C@@H](Cc2ccccc2)C(=O)N[C@@H](CC(C)C)C(=O)N(C)[C@@H](CC(C)C)C(=O)N[C@@H]([C@@H](C)O)C1=O [AP70] ([dV][NMeF]L[NMeL]T[NPrGly][NMeL]S(X3)[NMePhe(3-Cl)][NMeV]D-Piperidide; lactam N-11)	0.75
CC[C@H](C)[C@H]1C(=O)N[C@@H]([C@@H](C)O)C(=O)N(C)CC(=O)N(C)[C@@H](CC(C)C)C(=O)N[C@H](C(=O)N2CCCCC2)CC(=O)N(C)[C@@H](C(C)C)C(=O)N[C@@H](COCc2cncc(F)c2)C(=O)N(C)[C@@H](CC(C)C)C(=O)N(C)[C@@H](Cc2ccccc2)C(=O)N[C@@H](CC(C)C)C(=O)N(C)[C@@H](Cc2ccccc2)C(=O)N1C [pd181] ([NMeV]S(X2)[NMeL][NMeF]L[NMeF][NMeI]T[Sar][NMeL]D-Piperidide; lactam N-11)	1.1

---

- assayText: in vitro
- statedConditions: human, Caco-2, Caco-2 (membrane permeability)
*1 amine or outer side, *2 acyl side, *3 side chain or, on linkers, in order; H or OH if unused. Where a SMILES comes first, the peptide text is derived from it. Bridges are numbered along the chain shown (N, C = ends). [ ]: non-standard residue; d: D form. The star is where a group is joined. ξ: configuration not given here. X12 = O=C([C@H](CCCC(O)C(F)(F)F)N[*:1])[*:2]; NMeF = CN[C@@H](Cc1ccccc1)C(=O)O; NMeξIle = CC[C@H](C)C(NC)C(=O)O; NMeL = CN[C@@H](CC(C)C)C(=O)O; NMeA = CN[C@@H](C)C(=O)O; Piperidide = C1CCN(*)CC1; CH2CONHMe = CNC(=O)C*; NBuGly = CCCCNCC(=O)O; NPrGly = CCCNCC(=O)O; ξV = CC(C)C(N)C(=O)O; Sar = CNCC(=O)O
Each entry below lists one item and its recorded Papp value.
metricName: Papp (×10⁻⁶ cm/s)

compound	metricName	unitDescriptor	endpointResult
CC[C@H](C)C1C(=O)NC(C(C)C)C(=O)N(C)CC(=O)N(C)[C@@H](CC(C)C)C(=O)N[C@H](C(=O)N2CCCCC2)CC(=O)N(C)[C@@H](C)C(=O)N[C@@H](CCCC(O)C(F)(F)F)C(=O)N(C)[C@@H](CC(C)C)C(=O)N(C)[C@@H](Cc2ccccc2)C(=O)N[C@@H](CC(C)C)C(=O)N(C)[C@@H](Cc2ccccc2)C(=O)N1C (stereo partly drawn) [Compound D15] ([NMeA][X12][NMeL][NMeF]L[NMeF][NMeξIle][ξV][Sar][NMeL]D-Piperidide; lactam N-11)	Papp	×10⁻⁶ cm/s	0.61
CCCCN1CC(=O)N(C)[C@@H](Cc2ccccc2)C(=O)N[C@@H](COCC(=O)NC)C(=O)N(C)[C@@H](CC(C)C)C(=O)N[C@@H]([C@@H](C)O)C(=O)N(CCC)CC(=O)N(C)[C@@H](Cc2ccccc2)C(=O)N(C)[C@@H](CC(C)C)C(=O)N[C@@H](CC(C)C)C(=O)N(C)[C@@H](CC(C)C)C(=O)N[C@H](C(=O)N2CCCCC2)CC1=O [Compound I05] ([NBuGly][NMeF]S(CH2CONHMe)[NMeL]T[NPrGly][NMeF][NMeL]L[NMeL]D-Piperidide; lactam N-11)	Papp	×10⁻⁶ cm/s	0.8

---

- assayText: in vitro
- statedConditions: human, Caco-2, Caco-2 (cm/sec)
*1 amine or outer side, *2 acyl side, *3 side chain or, on linkers, in order; H or OH if unused. Where a SMILES comes first, the peptide text is derived from it. Bridges are numbered along the chain shown (N, C = ends). [ ]: non-standard residue; d: D form. The star is where a group is joined. hPhe(3-OMe,4-CONHMe) = CNC(=O)c1ccc(CC[C@H](N)C(=O)O)cc1OC; Hyp = O=C(O)[C@@H]1C[C@@H](O)CN1; NMeF = CN[C@@H](Cc1ccccc1)C(=O)O; NMeGABA = CN(CCCC(=O)[*:2])[*:1]; NMeI = CC[C@H](C)[C@H](NC)C(=O)O; NMeL = CN[C@@H](CC(C)C)C(=O)O; Propyl(2R-OH) = C[C@@H](O)C*; NMeA = CN[C@@H](C)C(=O)O; Piperidide = C1CCN(*)CC1; Ethyl(2-OH) = OCC*; Sar = CNCC(=O)O; tBu = CC(C)(C)*
# Lookup of reported Papp keyed by entry
metricName: Papp (×10⁻⁶ cm/s)

molecule	endpointResult
CC(C)C[C@@H]1NC(=O)[C@H](Cc2ccccc2)N(C)C(=O)[C@@H](CC(C)C)NC(=O)C[C@@H](C(=O)N2CCCCC2)NC(=O)[C@H](CC(C)C)N(C)C(=O)[C@H](Cc2ccccc2)N(C)C(=O)[C@H](COC(C)(C)C)NC(=O)[C@H](CC(C)C)N(C)C(=O)CN(C)C(=O)[C@H](COC[C@@H](C)O)NC(=O)[C@H](CC(C)C)N(C)C1=O [AP81] ([dL][NMeF]L[NMeL]S(Propyl(2R-OH))[Sar][NMeL]S(tBu)[NMeF][NMeL]D-Piperidide; lactam N-11)	0.69
CC(C)C[C@H]1C(=O)N[C@@H](C(C)C)C(=O)N(C)[C@@H](Cc2ccccc2)C(=O)N(C)[C@@H](Cc2ccccc2)C(=O)N[C@@H](COC(C)(C)C)C(=O)N(C)[C@@H](CC(C)C)C(=O)N[C@@H]([C@@H](C)O)C(=O)N(C)[C@@H](Cc2ccccc2)C(=O)N(C)[C@@H](CC(C)C)C(=O)N[C@H](C(=O)N2CCCCC2)CC(=O)N(C)CCCC(=O)N1C [pd216] ([NMeGABA][NMeL]V[NMeF][NMeF]S(tBu)[NMeL]T[NMeF][NMeL]D-Piperidide; lactam N-11)	1.2
CC[C@H](C)[C@H]1C(=O)N[C@@H](COC[C@@H](C)O)C(=O)N(C)CC(=O)N(C)[C@@H](CC(C)C)C(=O)N[C@H](C(=O)N2CCCCC2)CC(=O)N(C)[C@@H](C)C(=O)N[C@@H](CC(C)C)C(=O)N(C)[C@@H](CC(C)C)C(=O)N(C)[C@@H](Cc2ccccc2)C(=O)N[C@@H](CC(C)C)C(=O)N(C)[C@@H](Cc2ccccc2)C(=O)N1C [AP85] ([NMeA]L[NMeL][NMeF]L[NMeF][NMeI]S(Propyl(2R-OH))[Sar][NMeL]D-Piperidide; lactam N-11)	5.2
CC[C@H](C)[C@H]1C(=O)N2CCC[C@H]2C(=O)N(C)[C@@H](CC(C)C)C(=O)N[C@@H](COC(C)(C)C)C(=O)N2C[C@H](OCCO)C[C@H]2C(=O)N[C@@H]([C@@H](C)O)C(=O)N(C)[C@@H](CC(C)C)C(=O)N(C)[C@@H](CC(C)C)C(=O)N(C)[C@@H](CC(C)C)C(=O)N[C@H](C(=O)N2CCCCC2)CC(=O)N[C@H](CC(C)C)C(=O)N1C [AP238] ([dL][NMeI]P[NMeL]S(tBu)[Hyp](Ethyl(2-OH))T[NMeL][NMeL][NMeL]D-Piperidide; lactam N-11)	2
CNC(=O)c1ccc(CC[C@@H]2NC(=O)[C@H](CC(C)C)N(C)C(=O)CCCN(C)C(=O)C[C@@H](C(=O)N3CCCCC3)NC(=O)[C@H](CC(C)C)N(C)C(=O)[C@H](CC(C)C)N(C)C(=O)[C@H]([C@@H](C)O)NC(=O)[C@H](CC(C)C)N(C)C(=O)[C@H](COC(C)(C)C)NC(=O)[C@H](Cc3ccccc3)N(C)C(=O)[C@H](CC(C)C)N(C)C2=O)cc1OC [AP203] ([NMeGABA][NMeL][hPhe(3-OMe,4-CONHMe)][NMeL][NMeF]S(tBu)[NMeL]T[NMeL][NMeL]D-Piperidide; lactam N-11)	0.41
